# measured-target: Neuronal acetylcholine receptor
# test: Ability to displace [3H](-)-cytisine from nicotinic acetylcholine receptor (nAChR) in a whole rat brain preparation
Consider the following compounds and their measured Ki readings.
Express your answer in nM, writing the number without its unit.

Consider the following illustrative entries.
c1ccc(C2CCCN2)cc1 (configuration not stated)	8700
CN1CCCC1c1cccc(Cl)c1 (configuration not stated)	227

Query: // query Ki value for entry Cc1ccccc1C1CCCN1C (configuration not stated)
Result: 9000

Query: // query Ki value for entry COc1ccc(C2CCCN2C)cc1 (configuration not stated)
Result: 707

Query: // query Ki value for entry COc1ccc(C2CCCN2C)cc1OC (configuration not stated)
Result: 9700

Query: // query Ki value for entry CN1CCCC1c1ccc(F)c(F)c1 (configuration not stated)
Result: 420

Query: // query Ki value for entry CN1CCCC1c1cccc(F)c1 (configuration not stated)
Result: 399

Query: // query Ki value for entry CN1CCCC1c1ccc2c(c1)OCCO2 (configuration not stated)
Result: 1220

Query: // query Ki value for entry CN1CCCC1c1ccc2c(c1)OCO2 (configuration not stated)
Result: 46

Query: // query Ki value for entry CN1CCCC1c1ccc(C(F)(F)F)cc1 (configuration not stated)
Result: 931

Query: // query Ki value for entry CN1CCCC1c1ccc(Cl)cc1 (configuration not stated)
Result: 164

Query: // query Ki value for entry Cc1ccc(C2CCCN2C)cc1 (configuration not stated)
Result: 1330

###

# measured-target: Neuronal acetylcholine receptor
# test: Ability to displace [3H](-)-cytisine from nicotinic acetylcholine receptor (nAChR) in a whole rat brain preparation
metric-name: Ki (nM)
Express your answer in nM, writing the number without its unit.

Consider the following illustrative entries.
CN1CCCC1c1ccc(F)cc1 (stereo not given)	207
CN1CCCC1c1ccc(Cl)c(Cl)c1 (stereo not given)	68
COc1cc2c(cc1O)CCN1CC=C3C=C[C@H](OC)C[C@]321	5
Cc1cccc(C2CCCN2C)c1 (stereo not given)	719
COc1cccc(C2CCCN2C)c1 (stereo not given)	597
CN1CCCC1c1ccc(Br)cc1 (stereo not given)	75

Query compound follows.
Query: // query Ki value for entry COc1cc(C2CCCN2C)ccc1O (stereo not given)
Result: 8250

###

Consider the following molecules and their measured Ki readings.
# measured-target: Neuronal acetylcholine receptor
# test: Ability to displace [3H](-)-cytisine from nicotinic acetylcholine receptor (nAChR) in a whole rat brain preparation

COc1ccccc1C1CCCN1C (stereo not drawn)	> 10 µM
Clc1ccc(C2=NCCC2)cc1	> 10 µM

Query molecule follows.
Query: // query Ki value for entry "Fc1cccc(C2=NCCC2)c1"
Result: > 10 µM
